Test system: B. subtilis strain NCIB3610
TEST_PROTOCOL: Pellicle (biofilm) formation in liquid biofilm-inducing medium
Assay type: cell-based, Bacillus subtilis
CONDITION_DESCRIPTION: concentration not given

SMILES_CODE: N[C@H](Cc1ccccc1)C(=O)O
STUDY_SYSTEM: B. subtilis strain NCIB3610
biofilm-inhibition assay for B. subtilis: not effective
--
SMILES_CODE: C[C@@H](N)C(=O)O
STUDY_SYSTEM: B. subtilis strain NCIB3610
biofilm-inhibition assay for B. subtilis: not effective
